assay: physchem
parameter measured: pKa
Numbers only.

Provide pKa value for the following compound: CC(=O)O[C@@]12CO[C@@H]1C[C@H](O)[C@@]1(C)C(=O)[C@H](O)C3=C(C)[C@@H](OC(=O)[C@H](OC(=O)CCCN4CCN(C)CC4)[C@@H](NC(=O)OC(C)(C)C)c4ccccc4)C[C@@](O)([C@@H](OC(=O)c4ccccc4)C12)C3(C)C (stereo partly shown) [TD1]
7.7

###

test: Chemical (hydrolytic) stability in buffered aqueous solutions; assay type: physicochemical; settings: 24 hour incubation in pH 4 buffer, 37° C.
Under this convention, rule met denotes Prodrug levels (% remaining), pH 4 strictly below 90% and rule not met denotes Prodrug levels (% remaining), pH 4 at or above 90%.

Solved entries:
CC(=O)O[C@@]12CO[C@@H]1C[C@H](O)[C@@]1(C)C(=O)[C@H](O)C3=C(C)[C@@H](OC(=O)[C@H](OC(=O)CCCN4CCN(C)CC4)[C@@H](NC(=O)OC(C)(C)C)c4ccccc4)C[C@@](O)([C@@H](OC(=O)c4ccccc4)C12)C3(C)C (stereo partly drawn) :: rule not met
CC(=O)O[C@@]12CO[C@@H]1C[C@H](O)[C@@]1(C)C(=O)[C@H](O)C3=C(C)[C@@H](OC(=O)[C@H](OC(=O)CCCCN4CCCCC4)[C@@H](NC(=O)OC(C)(C)C)c4ccccc4)C[C@@](O)([C@@H](OC(=O)c4ccccc4)C12)C3(C)C (stereo partly drawn) :: rule not met
CC(=O)O[C@@]12CO[C@@H]1C[C@H](O)[C@@]1(C)C(=O)[C@H](O)C3=C(C)[C@@H](OC(=O)[C@H](OC(=O)CN4CCN(C)CC4)[C@@H](NC(=O)OC(C)(C)C)c4ccccc4)C[C@@](O)([C@@H](OC(=O)c4ccccc4)C12)C3(C)C (stereo partly drawn) :: rule not met

Is the reported Prodrug levels (% remaining), pH 4 for CC(=O)O[C@@]12CO[C@@H]1C[C@H](O)[C@@]1(C)C(=O)[C@H](O)C3=C(C)[C@@H](OC(=O)[C@H](OC(=O)CCCCN4CCN(C)CC4)[C@@H](NC(=O)OC(C)(C)C)c4ccccc4)C[C@@](O)([C@@H](OC(=O)c4ccccc4)C12)C3(C)C (stereo partly drawn) strictly below 90%?
rule not met

Is the reported Prodrug levels (% remaining), pH 4 for CC(=O)O[C@@]12CO[C@@H]1C[C@H](O)[C@@]1(C)C(=O)[C@H](O)C3=C(C)[C@@H](OC(=O)[C@H](OC(=O)CN4CCOCC4)[C@@H](NC(=O)OC(C)(C)C)c4ccccc4)C[C@@](O)([C@@H](OC(=O)c4ccccc4)C12)C3(C)C (stereo partly drawn) strictly below 90%?
rule met

Is the reported Prodrug levels (% remaining), pH 4 for CC(=O)O[C@@]12CO[C@@H]1C[C@H](O)[C@@]1(C)C(=O)[C@H](O)C3=C(C)[C@@H](OC(=O)[C@H](OC(=O)CN4CCCCC4)[C@@H](NC(=O)OC(C)(C)C)c4ccccc4)C[C@@](O)([C@@H](OC(=O)c4ccccc4)C12)C3(C)C (stereo partly drawn) strictly below 90%?
rule met

Is the reported Prodrug levels (% remaining), pH 4 for CC(=O)O[C@@]12CO[C@@H]1C[C@H](O)[C@@]1(C)C(=O)[C@H](O)C3=C(C)[C@@H](OC(=O)[C@H](OC(=O)CCN4CCOCC4)[C@@H](NC(=O)OC(C)(C)C)c4ccccc4)C[C@@](O)([C@@H](OC(=O)c4ccccc4)C12)C3(C)C (stereo partly drawn) strictly below 90%?
rule met

Is the reported Prodrug levels (% remaining), pH 4 for CC(=O)O[C@@]12CO[C@@H]1C[C@H](O)[C@@]1(C)C(=O)[C@H](O)C3=C(C)[C@@H](OC(=O)[C@H](OC(=O)CCCN4CCOCC4)[C@@H](NC(=O)OC(C)(C)C)c4ccccc4)C[C@@](O)([C@@H](OC(=O)c4ccccc4)C12)C3(C)C (stereo partly drawn) strictly below 90%?
rule not met

Is the reported Prodrug levels (% remaining), pH 4 for CC(=O)O[C@@]12CO[C@@H]1C[C@H](O)[C@@]1(C)C(=O)[C@H](O)C3=C(C)[C@@H](OC(=O)[C@H](OC(=O)CCCN4CCCCC4)[C@@H](NC(=O)OC(C)(C)C)c4ccccc4)C[C@@](O)([C@@H](OC(=O)c4ccccc4)C12)C3(C)C (stereo partly drawn) strictly below 90%?
rule not met
